Biological target: FGFR3 (h) (Homo sapiens, UniProt P22607)
Experiment: FGFR3 (enzymatic assay), TR-FRET
Assay type: biochemical
Conditions: average values if tested multiple times, read-out: FGFR 3 pIC50 (converted)
Text: Time-Resolved Fluorescence Resonance Energy Transfer (TR-FRET) signal (ex340 nm.
Structures can show the parent of a compound that is named as a salt.
measurement.type: IC50 (nM)

{"columns": ["compound", "target.of.assay", "measurement.type", "recorded.value"],
 "data": [
  ["COc1cc(OC)c(F)c(/N=c2\\ccc3ncc(-c4cnn(C)c4)nc3n2CC(O)COC(C)C)c1F (centres unmarked)", "FGFR3 (h) (Homo sapiens, UniProt P22607)", "IC50", 0.832],
  ["COc1cc(O)cc(N(Cc2ncc[nH]2)c2ccc3ncc(-c4cnn(C)c4)nc3n2)c1", "FGFR3 (h) (Homo sapiens, UniProt P22607)", "IC50", 0.417],
  ["COc1cc(OC)cc(N(Cc2ncc[nH]2)c2ccc3ncc(-c4cnn(C)c4)nc3n2)c1 [24-fumarate salt]", "FGFR3 (h) (Homo sapiens, UniProt P22607)", "IC50", 0.851],
  ["CNCCN(c1ccc2ncc(-c3cnn(C)c3)nc2n1)c1c(Cl)ccc(OC)c1Cl", "FGFR3 (h) (Homo sapiens, UniProt P22607)", "IC50", 105],
  ["COc1cc(OC)c(F)c(N(Cc2nc3ccccc3[nH]2)c2ccc3ncc(-c4cnn(C)c4)nc3n2)c1", "FGFR3 (h) (Homo sapiens, UniProt P22607)", "IC50", 1.82],
  ["CNCCn1/c(=N/c2c(Cl)c(OC)cc(OC)c2Cl)ccc2ncc(-c3cnn(C)c3)nc21", "FGFR3 (h) (Homo sapiens, UniProt P22607)", "IC50", 14.1],
  ["COCC(O)Cn1c(=Nc2c(F)c(OC)cc(OC)c2F)ccc2ncc(-c3cnn(C)c3)nc21 (centres unmarked)", "FGFR3 (h) (Homo sapiens, UniProt P22607)", "IC50", 0.501],
  ["COc1cc(OC)cc(N(CC2CCC(=O)N2)c2ccc3ncc(-c4cnn(C)c4)nc3n2)c1 (centres unmarked) [Compound 49]", "FGFR3 (h) (Homo sapiens, UniProt P22607)", "IC50", 1.62]
]}

----------
Target: KDR (h) (Homo sapiens)
Sequence (P35968 20-1356): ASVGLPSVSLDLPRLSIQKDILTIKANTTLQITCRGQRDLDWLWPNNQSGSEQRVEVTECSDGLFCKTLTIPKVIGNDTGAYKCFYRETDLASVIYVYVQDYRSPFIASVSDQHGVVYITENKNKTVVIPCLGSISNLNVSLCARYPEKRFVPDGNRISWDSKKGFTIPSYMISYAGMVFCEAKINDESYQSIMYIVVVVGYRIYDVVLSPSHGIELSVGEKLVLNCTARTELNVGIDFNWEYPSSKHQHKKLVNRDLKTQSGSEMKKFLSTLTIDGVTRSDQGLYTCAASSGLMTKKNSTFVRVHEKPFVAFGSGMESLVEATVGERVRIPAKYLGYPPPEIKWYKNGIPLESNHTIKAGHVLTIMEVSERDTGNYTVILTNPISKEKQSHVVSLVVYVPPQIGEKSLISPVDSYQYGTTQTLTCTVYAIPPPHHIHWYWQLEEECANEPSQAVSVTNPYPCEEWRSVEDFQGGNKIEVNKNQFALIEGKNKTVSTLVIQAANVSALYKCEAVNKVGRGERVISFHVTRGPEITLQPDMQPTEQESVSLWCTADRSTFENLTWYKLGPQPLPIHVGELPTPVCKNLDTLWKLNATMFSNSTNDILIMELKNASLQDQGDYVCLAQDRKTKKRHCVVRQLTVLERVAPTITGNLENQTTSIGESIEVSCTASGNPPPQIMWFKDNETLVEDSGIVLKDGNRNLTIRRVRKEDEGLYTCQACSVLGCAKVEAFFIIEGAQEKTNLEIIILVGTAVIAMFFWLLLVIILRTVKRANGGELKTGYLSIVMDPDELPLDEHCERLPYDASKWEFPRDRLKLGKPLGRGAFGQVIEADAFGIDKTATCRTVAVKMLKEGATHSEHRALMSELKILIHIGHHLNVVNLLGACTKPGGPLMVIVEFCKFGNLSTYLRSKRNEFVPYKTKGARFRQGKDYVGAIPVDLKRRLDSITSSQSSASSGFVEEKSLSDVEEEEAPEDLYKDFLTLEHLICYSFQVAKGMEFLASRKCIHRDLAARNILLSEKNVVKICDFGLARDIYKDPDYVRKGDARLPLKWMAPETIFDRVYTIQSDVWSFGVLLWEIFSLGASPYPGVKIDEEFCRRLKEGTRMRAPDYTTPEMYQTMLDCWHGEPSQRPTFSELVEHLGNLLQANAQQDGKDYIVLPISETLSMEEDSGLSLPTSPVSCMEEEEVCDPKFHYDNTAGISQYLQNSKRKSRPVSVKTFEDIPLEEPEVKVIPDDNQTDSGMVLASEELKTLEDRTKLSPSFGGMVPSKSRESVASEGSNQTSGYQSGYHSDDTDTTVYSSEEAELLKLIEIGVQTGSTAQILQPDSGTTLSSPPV
Experiment: KDR (VEGFR2) (enzymatic assay), TR-FRET
Type: biochemical
Conditions: read-out: VEGFR 2 (KDR) pIC50 (converted)
measurement.type: log10(IC50) (log10 of the value in nM)

{"columns": ["compound", "recorded.value"],
 "data": [
  ["COc1cc(OC)c(F)c(N(CC(=O)O)c2ccc3ncc(-c4cnn(C)c4)nc3n2)c1", 2.30],
  ["COc1cc(OC)c(F)c(N(Cc2ncc[nH]2)c2ccc3ncc(-c4cnn(C(CO)CCl)c4)nc3n2)c1 (stereo not drawn)", 0.88],
  ["COc1cc(OC)c(F)c(/N=c2\\ccc3ncc(-c4cnn(C)c4)nc3n2C)c1F (single isomer, unassigned)", 0.49],
  ["COc1cc(/N=c2\\ccc3ncc(-c4cnn(C)c4)nc3n2CC2CCOC2)c(F)c(OC)c1 (single isomer, unassigned)", 0.63],
  ["COc1cc(OC)c(F)c(N(CC(=O)N2CCNCC2)c2ccc3ncc(-c4cnn(C)c4)nc3n2)c1", 2.38],
  ["COc1cc(OC)c(F)c(N(Cc2ncc[nH]2)c2ccc3ncc(N4CCOCC4)nc3n2)c1F", 1.72],
  ["COc1cc(OC)c(F)c(N(CC2CCC(=O)N2C)c2ccc3ncc(-c4cnn(C)c4)nc3n2)c1 (stereo not drawn) [Compound 161]", 2.10],
  ["COc1cc(OC)c(F)c(N(CC2CCC(=O)N2CCO)c2ccc3ncc(-c4cnn(C)c4)nc3n2)c1 (stereo not drawn) [Compound 194]", 2.10],
  ["COc1ccc(Cl)c(N(CC2CCC(=O)N2)c2ccc3ncc(-c4cnn(C)c4)nc3n2)c1Cl (single isomer, unassigned) [Compound 91]", 2.87],
  ["CCOCc1c[nH]c(CN(c2ccc3ncc(-c4cnn(C)c4)nc3n2)c2cc(OC)cc(OC)c2F)n1", 1.44],
  ["COc1cc(/N=c2\\ccc3ncc(-c4cnn(C)c4)nc3n2Cc2cc(C)no2)c(F)c(OC)c1", 0.68],
  ["COc1cc(OC)cc(N(CCNC2COC2)c2ccc3ncc(-c4cnn(C)c4)nc3n2)c1", 1.74],
  ["COc1cc(OC)cc(N(CCS(C)(=O)=O)c2ccc3ncc(-c4cnn(CCS(C)(=O)=O)c4)nc3n2)c1", 2.15],
  ["COc1cc(OC)cc(N(Cc2nnco2)c2ccc3ncc(-c4cnn(C)c4)nc3n2)c1", 2.21]
]}

----------
Target: Ba/F3-FGFR3-transfected cells (Homo sapiens)
Construct: BAF3-FGFR3 (MIN IL3) pIC50; other: minus IL3
Sequence (P22607 whole entry, change not shown): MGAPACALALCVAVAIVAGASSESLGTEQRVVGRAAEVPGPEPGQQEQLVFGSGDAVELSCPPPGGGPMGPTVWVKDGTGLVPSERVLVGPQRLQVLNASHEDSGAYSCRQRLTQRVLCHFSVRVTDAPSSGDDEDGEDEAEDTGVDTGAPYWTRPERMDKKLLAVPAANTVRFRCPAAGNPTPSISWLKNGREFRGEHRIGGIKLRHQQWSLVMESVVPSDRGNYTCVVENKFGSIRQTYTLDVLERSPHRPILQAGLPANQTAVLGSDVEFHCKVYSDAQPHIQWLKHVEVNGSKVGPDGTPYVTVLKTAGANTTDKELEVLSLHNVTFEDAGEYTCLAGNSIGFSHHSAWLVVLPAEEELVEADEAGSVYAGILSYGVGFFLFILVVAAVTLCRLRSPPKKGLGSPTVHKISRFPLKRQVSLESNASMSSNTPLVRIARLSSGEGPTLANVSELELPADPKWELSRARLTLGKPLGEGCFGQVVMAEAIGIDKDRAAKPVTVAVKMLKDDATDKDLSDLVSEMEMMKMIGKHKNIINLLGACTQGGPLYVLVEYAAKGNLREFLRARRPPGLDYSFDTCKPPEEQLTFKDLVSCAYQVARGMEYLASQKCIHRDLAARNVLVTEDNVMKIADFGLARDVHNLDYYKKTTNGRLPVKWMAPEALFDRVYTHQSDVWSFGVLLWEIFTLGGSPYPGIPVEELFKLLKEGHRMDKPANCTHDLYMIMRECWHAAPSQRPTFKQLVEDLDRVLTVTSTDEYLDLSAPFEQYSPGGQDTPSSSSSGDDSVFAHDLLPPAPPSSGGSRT
Experiment: Ba/F3-FGFR3 (minus IL3) cellular proliferation assay, Alamar Blue
Type: cell-based
Counter-ions that a name gives are not always drawn.
measurement.type: BAF3-FGFR3 (MIN IL3) pIC50

{"columns": ["compound", "measurement.type", "value.relation.sign", "recorded.value"],
 "data": [
  ["CNCCn1/c(=N/c2c(F)c(OC)cc(OC)c2F)ccc2ncc(-c3cnn(C)c3)nc21", "BAF3-FGFR3 (MIN IL3) pIC50", "=", 6.9],
  ["CNCCn1/c(=N/c2c(F)cccc2F)ccc2ncc(-c3cnn(C)c3)nc21", "BAF3-FGFR3 (MIN IL3) pIC50", "<", 5],
  ["COc1cc(OC)c(F)c(N(Cc2nc3ccccc3[nH]2)c2ccc3ncc(-c4cnn(C)c4)nc3n2)c1", "BAF3-FGFR3 (MIN IL3) pIC50", "=", 8.08],
  ["COc1cc(OC)cc(N(Cc2ncc[nH]2)c2ccc3ncc(-c4cnn(C)c4)nc3n2)c1 [24-hydrochloric acid salt]", "BAF3-FGFR3 (MIN IL3) pIC50", "=", 7.96],
  ["COc1cc(OC)cc(N(Cc2ncc[nH]2)c2ccc3ncc(-c4cnn(C5CCNCC5)c4)nc3n2)c1", "BAF3-FGFR3 (MIN IL3) pIC50", "=", 7.63],
  ["COc1cc(/N=c2\\ccc3ncc(-c4cnn(C)c4)nc3n2CCN2CCCC2=O)c(F)c(OC)c1", "BAF3-FGFR3 (MIN IL3) pIC50", "=", 7.27],
  ["COc1cc(OC)c(F)c(N(Cc2ncc[nH]2)c2ccc3ncc(N4C[C@@H](C)N[C@@H](C)C4)nc3n2)c1", "BAF3-FGFR3 (MIN IL3) pIC50", "=", 7.18],
  ["COc1cc(/N=c2\\ccc3ncc(-c4cnn(C)c4)nc3n2CC2CCC(=O)N2)c(F)c(OC)c1 (stereo not drawn) [Compound 53]", "BAF3-FGFR3 (MIN IL3) pIC50", "=", 7.54],
  ["COc1cc(OC)c(F)c(N(Cc2ncc[nH]2)c2ccc3ncc(-c4cnn(C(CO)CCl)c4)nc3n2)c1 (stereo not drawn)", "BAF3-FGFR3 (MIN IL3) pIC50", "=", 8.25],
  ["CNCCn1/c(=N/c2cc(OC)cc(OC)c2F)ccc2ncc(-c3cnn(C)c3)nc21", "BAF3-FGFR3 (MIN IL3) pIC50", "=", 6.27],
  ["COc1cc(OC)c(F)c(/N=c2\\ccc3ncc(-c4cnn(C)c4)nc3n2CCCO)c1F (single isomer, unassigned)", "BAF3-FGFR3 (MIN IL3) pIC50", "=", 8.6],
  ["COc1cc(OC)cc(N(Cc2ncccn2)c2ccc3ncc(-c4cnn(C)c4)nc3n2)c1", "BAF3-FGFR3 (MIN IL3) pIC50", "=", 7.1],
  ["COc1cc(OC)c(F)c(N(CC(N)=O)c2ccc3ncc(-c4cnn(C)c4)nc3n2)c1", "BAF3-FGFR3 (MIN IL3) pIC50", "=", 6.51],
  ["COc1cc(/N=c2\\ccc3ncc(-c4cnn(C)c4)nc3n2CC2CCCOC2)cc(OC)c1 (stereo not drawn)", "BAF3-FGFR3 (MIN IL3) pIC50", "=", 7.32],
  ["COc1cc(OC)c(F)c(N(CC2CCOC2)c2ccc3ncc(-c4cnn(C)c4)nc3n2)c1 (single isomer, unassigned) [Compound 171]", "BAF3-FGFR3 (MIN IL3) pIC50", "=", 7.28],
  ["COc1cc(/N=c2\\ccc3ncc(-c4cnn(C)c4)nc3n2Cc2cn[nH]c2)c(F)c(OC)c1", "BAF3-FGFR3 (MIN IL3) pIC50", "=", 8.07],
  ["COc1cc(/N=c2\\ccc3ncc(-c4cnn(C)c4)nc3n2CC2CCC(=O)N2CCO)c(F)c(OC)c1 (single isomer, unassigned) [Compound 219]", "BAF3-FGFR3 (MIN IL3) pIC50", "=", 7.66]
]}

These entries and their values trace back to patent US9309242B2.
